B1: Hairpin Ribozyme (parent)
chain: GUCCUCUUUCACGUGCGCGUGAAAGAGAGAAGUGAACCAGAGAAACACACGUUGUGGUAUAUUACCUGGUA

# Variants of: B1
# procedure text: self-cleavage, relative activity (ratio to wild type); higher = more cleavage; co-transcriptional
Please go through the items and note down their self-cleavage.
One number for each entry.

[
  {
    "residue codes": "GUCCUCUUUCAGGUGCGCGUGAAAGAGAGAAGUGAACCAGAGGAACACACGUUGUGGUAUAUUACCUGGUA",
    "self-cleavage": 0.139
  },
  {
    "residue codes": "GUCCUCUUUCAUGUGCGCGUGAAAGAGAGAUGUGAACCAGAGAAACACACGUUGUGGUAUAUUACCUGGUA",
    "self-cleavage": 0.112
  },
  {
    "residue codes": "GUCCUCUUUCACGUGCGCCUGAAAGAGAGAAGUGAACCAGAGAAACACACGUUGUGGUAUAUUACCUAGUA",
    "self-cleavage": 0.276
  }
]

State recorded self-cleavage for all listed variants.
1. GUCCCCUUUCACGUGCGCGUGAAAAAGAGAAGUGAACCAGAGAAACACACGUUGUGGUAUAUUACCUGGUA
2. GUCCUCUUUGACGUGCGCGUGAAAGAGAGAAGUGAACCAGAGAAACACACGUUUUGGUAUAUUACCUGGUA
3. GUCCUCUUUCACGUGCGCGUGAAAGAGAGAAGUGAACCCGAGAAACACUCGUUGUGGUAUAUUACCUGGUA

1: 0.265; 2: 0.471; 3: 0.12
